- Protocol Summary: Inhibition of MurC (unknown origin) at 100 uM relative to control
Quantity Name: inhibition (%)

- Compound Structure: "Cc1cc(-c2ccncc2)cc(C)c1/C=C/c1cncc(-c2nnn[nH]2)c1"
  Value Unit: "%"
  inhibition: 14
- Compound Structure: "COc1ccccc1-c1cc(C)c(/C=C/c2cncc(-c3nnn[nH]3)c2)c(C)c1"
  Value Unit: "%"
  inhibition: 35
- Compound Structure: "Cc1cc(-c2ccco2)cc(C)c1/C=C/c1cncc(C2=NCCS2)c1"
  Value Unit: "%"
  inhibition: 56
- Compound Structure: "Cc1cc(-c2ccco2)cc(C)c1/C=C/c1cncc(-c2nn[nH]n2)c1"
  Value Unit: "%"
  inhibition: 30

[I] Cc1cc(-c2cccc(CO)c2)cc(C)c1/C=C/c1cncc(-c2nnn[nH]2)c1
[II] COC(=O)c1cccc(-c2cc(C)c(/C=C/c3cncc(-c4nnn[nH]4)c3)c(C)c2)c1
[III] Cc1cc(-c2ccco2)cc(C)c1/C=C/c1cncc(C(=O)O)c1
[IV] Cc1cc(-c2ccco2)cc(C)c1/C=C/c1cccc(-c2nnn[nH]2)c1
[V] Cc1cc(-c2cccnc2)cc(C)c1/C=C/c1cncc(-c2nn[nH]n2)c1
Input line: Order the 5 compounds from highest to lowest inhibition. Use the labels to give the requested order.
Output line: III, I, II, V, IV

[1] Cc1cc(-c2ccco2)cc(C)c1/C=C/c1cncc(C(N)=O)c1
[2] Cc1cc(Br)cc(C)c1/C=C/c1cncc(-c2nnn[nH]2)c1
Input line: Which has the smaller recorded inhibition, 1 or 2 ? State the label of the item chosen.
Output line: 1
(1: 20%, 2: 30%)
